The reported measurements were obtained from ChEMBL document CHEMBL1201862.

Measured GI50 values are reported for all entries that follow.
- Test system: LOX IMVI
- Protocol Summary: NCI tumour cell line growth inhibition, 48 h
Calls of active or inactive are those of the source. No stated cut-off is given here; in the data, active = GI50 up to about 1.1 µM and inactive = higher.

- Nc1cccc(C2CCCc3c2[nH]c2ccccc32)c1 (centres undefined): 12.4 µM (inactive)
- CC1C2(C)OC(=N)C(C#N)(C(C)O2)C1(C#N)C#N (centres undefined): 19.5 µM (inactive)
- COCCCNc1c2ccccc2nc2ccccc12: 2.22 µM (inactive)

Turning to the following molecule.
Value wanted: GI50 (LOX IMVI) of entry CCN(CC)CCNc1ccc2nnn3c4ccc([N+](=O)[O-])cc4c(=O)c1c23
4.58 µM (inactive)

###

Measured GI50 values are reported for all entries that follow.
- System: A549
- Protocol Summary: NCI tumour cell line growth inhibition, 48 h
Activity calls are given as the source filed them. Rule as the data show it: active = GI50 up to about 1.1 µM and inactive = higher.

* O=c1[nH]cnc2c1nnn2C1C=C(CO)C(O)C1O (configuration not stated) | > 100 µM (inactive)

Consider the compound O=C(NNCC(O)COc1ccccc1)c1ccccc1 (configuration not stated) and give its measured GI50.
> 100 µM (inactive)

Consider the compound CCC(C)C1=C(O)[N+]2([O-])Oc3ccc(-c4c(O)c(O)c(-c5ccc(O)cc5)c(OC(C)=O)c4OC(C)=O)cc3OC2(C(C)CC)C(=O)N1O (configuration not stated) and give its measured GI50.
> 50 µM (inactive)

Consider the compound CC12C/C(=C\c3ccccc3)C(=O)C3C1CCCC32 and give its measured GI50.
> 100 µM (inactive)

Consider the compound C[C@@H]1C[C@](O)([C@@H](C)Cl)C(=O)O[C@@H]2CCN3CC=C(COC(=O)[C@]1(C)O)[C@H]23 and give its measured GI50.
> 100 µM (inactive)

Consider the compound O=[N+]([O-])c1ccc2c(c1)nc(Cc1ccccc1)n2C[C@@H]1CCCN2CCCCC12 (some centres not stated) and give its measured GI50.
51.2 µM (inactive)

Consider the compound COc1cc(/N=N\c2cccc(S(=O)(=O)O)c2)c(C)cc1/N=N\c1ccc(/C=C/c2ccc(/N=[N+](/[O-])c3ccc(/C=C/c4ccc(/N=N\c5cc(C)c(/N=N/c6cccc(S(=O)(=O)O)c6)cc5OC)cc4)c(S(=O)(=O)O)c3)cc2S(=O)(=O)O)cc1 and give its measured GI50.
> 100 µM (inactive)

Consider the compound COC(=O)c1ccc2c(c1)S/C(=C/c1ccc3ccc4cccc5ccc1c3c45)S2 and give its measured GI50.
42 µM (inactive)

Consider the compound O=C(O)/C=C(/C(=O)O)C12CCN3CC4=CCOC5CC(=O)NC1C5C4CC32 (configuration not stated) and give its measured GI50.
> 100 µM (inactive)

Consider the compound O=C(CNC(=O)OCc1ccccc1)NCCCCC(NC(=O)OCc1ccccc1)C(=O)O (configuration not stated) and give its measured GI50.
> 100 µM (inactive)

Consider the compound COc1ccc(C=C2C(=O)OC(C)(C)OC2=O)cc1OC and give its measured GI50.
> 100 µM (inactive)

Consider the compound CC1(C)SCc2nc3ccccc3n21 and give its measured GI50.
> 100 µM (inactive)

Consider the compound O=c1[nH]cc(-c2c[nH]c3ccccc23)nc1-c1c[nH]c2ccccc12 and give its measured GI50.
21 µM (inactive)

###

- System: HOP-62
- Protocol Summary: NCI tumour cell line growth inhibition, 48 h
Calls of active or inactive are those of the source. Cut-off read from the data, not from the text of the source: active = GI50 up to about 1.1 µM and inactive = higher.
Measured GI50 values are reported for all entries that follow.

• COc1cc2oc(-c3ccc4c(c3)OCO4)c(OC)c(=O)c2c(OC)c1OC = 27.4 µM (inactive)
• C/C=C(\C)C(=O)OC1/C=C(\C)CC/C=C(\C)CC2OC(=O)C(C)(OC(C)=O)C12 (stereo not drawn) = > 100 µM (inactive)

Turning to the following molecule.
Consider the molecule CC(C)CC(NC(=O)OC(C)(C)C)C(=O)Nc1ccc(Nc2nc(F)nc(-c3c4ccccc4c4n3CCS4)n2)cc1 (stereo not drawn) and give its measured GI50.
21.2 µM (inactive)

###

- Test system: SF-268
- Protocol Summary: NCI tumour cell line growth inhibition, 48 h
Activity calls are given as the source filed them. Cut-off read from the data, not from the text of the source: active = GI50 up to about 1.1 µM and inactive = higher.
Parameter: GI50

* CC(C)(C)OC(=O)NC(CSCc1ccc(C(=O)c2ccccc2)cc1)C(=O)N1CCN(CCCCN2c3ccccc3Sc3cc(N=[N+]=[N-])ccc32)CC1 (centres undefined) | > 100 µM (inactive)
* NC(S)=Nc1cc(Cl)ccc1Cl | > 100 µM (inactive)
* CCOC(=O)[C@H]1Nc2c(cccc2[N+](=O)[O-])[C@H]2OCC[C@@H]12 | > 100 µM (inactive)
* O=C(NCCCCCCNC(=O)n1cc(F)c(=O)[nH]c1=O)NCCCOCCOCCCNC(=O)C(O)C(O)C(O)C(O)CO (centres undefined) | > 2.5 µM (inactive)
* O=C(O)CC(O)(c1ccccc1C(=O)O)c1cccc2ccccc12 (centres undefined) | > 100 µM (inactive)
* CC(=O)NCCc1c[nH]c2ccc(Cl)cc12 | > 100 µM (inactive)
* COc1cc(C)cc2c(-c3c(O)cc(O)c4c3C[C@H](C)N[C@H]4C)cc(-c3cc(-c4c(O)cc(O)c5c4C[C@H](C)N[C@H]5C)c4cc(C)cc(OC)c4c3O)c(O)c12 | > 100 µM (inactive)
* CC(=O)NC(Cc1ccsc1)C(=O)O (centres undefined) | > 100 µM (inactive)

Turning to the following molecule.
Consider the molecule COc1cc2ccnc3c(=C(SC)SC)c(=O)c(c1OC)c23 and give its measured GI50.
22.2 µM (inactive)

###

- Test system: SF-268
- Protocol Summary: NCI tumour cell line growth inhibition, 48 h
Activity calls are given as the source filed them. Cut-off read from the data, not from the text of the source: active = GI50 up to about 1.1 µM and inactive = higher.
The categories you may choose from are active, inactive

* Nc1nc(O)nc2snnc12 | inactive

Look up the recorded call for CC(C)(O)C1COC2=C1C(=O)c1ccccc1C2=O (configuration not stated) in this test.
inactive

###

- Tested on: ACHN
- Protocol Summary: NCI tumour cell line growth inhibition, 48 h
Active and inactive are the calls of the source. Rule as the data show it: active = GI50 up to about 1.1 µM and inactive = higher.
The categories you may choose from are t (active), f (inactive)

Look up the recorded call for C[C@]12CC[C@H](O)CC1=CC[C@@H]1C2CC[C@]2(C)Nc3c(cnn3-c3ccc(F)cc3)CC12 (some centres undefined) in this test.
f

Look up the recorded call for O=C1NCCCc2nonc21 in this test.
f

###

- System: BT-549
- Protocol Summary: NCI tumour cell line growth inhibition, 48 h
Activity calls are given as the source filed them. No stated cut-off is given here; in the data, active = GI50 up to about 1.1 µM and inactive = higher.
Parameter: GI50

Solved cases (8 shown):
• Cc1ccc(/C=N/Nc2nncc3ccccc23)s1 = > 55.8 µM (inactive)
• CCCCCCc1ccc(C(=O)NO)cc1 = 28.6 µM (inactive)
• O=C1c2cccc3cc([N+](=O)[O-])cc(c23)C(=O)N1Nc1ccc([N+](=O)[O-])cc1[N+](=O)[O-] = 19.4 µM (inactive)
• COc1ccc(-c2c(C#N)c(N)nc3c2CCS(=O)(=O)c2ccccc2-3)cc1 = > 100 µM (inactive)
• COC(=O)/C=C\C(C#N)(C#N)/N=C/c1ccccc1 = 5.2 µM (inactive)
• COc1ccc(-c2nnc3nc4ccccc4n3c2O)cc1 = > 100 µM (inactive)
• O=C1O/C(=C\c2ccccc2)N(c2ccccc2)C1=O = > 100 µM (inactive)
• COC(=O)[C@H](C)NC(=O)[C@H](CSC)N1C(=O)N[C@@H](C(C)C)C1=O = > 100 µM (inactive)

Consider the molecule O=C1c2ccccc2CCC1C(O)(C(F)(F)F)C(F)(F)F (stereo not given) and give its measured GI50.
> 100 µM (inactive)

Consider the molecule O=c1c(O)c(-c2ccccc2)oc2c(CP(=O)(O)O)cccc12 and give its measured GI50.
> 100 µM (inactive)

###

- Tested on: SN12C
- Protocol Summary: NCI tumour cell line growth inhibition, 48 h
Calls of active or inactive are those of the source. Rule as the data show it: active = GI50 up to about 1.1 µM and inactive = higher.
Measured GI50 values are reported for all entries that follow.

Solved cases (6 shown):
- CCOC(=O)/C=C/C1=C(Br)[C@@]2(C)CC[C@@H]3c4ccc(O)cc4CC[C@H]3[C@@H]2C1: 13.6 µM (inactive)
- CCCCN(CC)CC(C(C)=O)c1c(O)c2ccccc2oc1=O (stereo not given): > 100 µM (inactive)
- CCOC(=O)c1cccc(/N=N/Nc2cccc(C(=O)OCC)c2)c1: 30.1 µM (inactive)
- Cc1n[n+](Cc2ccccc2)c2sc(N)nn12: > 100 µM (inactive)
- CNc1ncnc2c1ncn2C1C=CC(COS(N)(=O)=O)C1 (stereo not given): > 100 µM (inactive)
- COc1ccc(-n2nnc3c(C#N)c(-c4ccccc4)c(C)n3c2=O)cc1: 62.5 µM (inactive)

Turning to the following compound.
Consider the compound O=C1Nc2ccc(Cl)cc2C(=O)N2CCC[C@@H]12 and give its measured GI50.
> 100 µM (inactive)

###

- System: Hs-578T
- Protocol Summary: NCI tumour cell line growth inhibition, 48 h
Calls of active or inactive are those of the source. Cut-off read from the data, not from the text of the source: active = GI50 up to about 1.1 µM and inactive = higher. Numbered stars: 1 amine (or outer) side, 2 acyl side, 3 side chain; on linkers, the order of the positions; unused ones are H or OH. Bridge positions count the residues as written; N and C are the ends. Square brackets hold non-standard residues; d marks the D form. Peptide text beside a SMILES is read from it. X58 = COc1c(N[*:1])cccc1C(=O)O[C@H](C(=O)[C@H](C)C(=O)[*:2])C(C)C; X57 = CC(C)C[C@H](C(=O)[*:2])C(C)C(=O)C1CCCN1[*:1]; NMeY = CN[C@@H](Cc1ccc(O)cc1)C(=O)O; Lac = C[C@H](O)C(=O)O
Parameter: GI50

- CCOc1cc(NC(C)=O)ccc1C(=O)NNC(=O)c1ccccc1OC(C)=O: > 52 µM (inactive)
- C1=C2C3=[N+](CCCC3)CC2Cc2sccc21 (centres undefined): > 100 µM (inactive)
- COc1ccc(C[C@H]2C(=O)O[C@H](C)[C@H](NC(=O)[C@@H](CC(C)C)C(C)C(=O)C3CCCN3C(=O)[C@H](C)O)C(=O)Nc3cccc(c3OC)C(=O)O[C@@H](C(C)C)C(=O)[C@H](C)C(=O)N[C@@H](CC(C)C)C(=O)N3CCC[C@H]3C(=O)N2C)cc1 (some centres undefined) (H-[Lac][X57]T[X58]LP[NMeY](Me); ester 3-C): > 12.5 µM (inactive)

Turning to the following compound.
Value wanted: GI50 (Hs-578T) of entry Cc1nn(C(=O)Cc2ccccc2)c2c1C(c1ccccc1)SC(=N)N2 (centres undefined)
> 100 µM (inactive)
